Assay system: Glucocorticoid Receptor (GR) (Homo sapiens, UniProt P04150)
Sequence (P04150 1-777): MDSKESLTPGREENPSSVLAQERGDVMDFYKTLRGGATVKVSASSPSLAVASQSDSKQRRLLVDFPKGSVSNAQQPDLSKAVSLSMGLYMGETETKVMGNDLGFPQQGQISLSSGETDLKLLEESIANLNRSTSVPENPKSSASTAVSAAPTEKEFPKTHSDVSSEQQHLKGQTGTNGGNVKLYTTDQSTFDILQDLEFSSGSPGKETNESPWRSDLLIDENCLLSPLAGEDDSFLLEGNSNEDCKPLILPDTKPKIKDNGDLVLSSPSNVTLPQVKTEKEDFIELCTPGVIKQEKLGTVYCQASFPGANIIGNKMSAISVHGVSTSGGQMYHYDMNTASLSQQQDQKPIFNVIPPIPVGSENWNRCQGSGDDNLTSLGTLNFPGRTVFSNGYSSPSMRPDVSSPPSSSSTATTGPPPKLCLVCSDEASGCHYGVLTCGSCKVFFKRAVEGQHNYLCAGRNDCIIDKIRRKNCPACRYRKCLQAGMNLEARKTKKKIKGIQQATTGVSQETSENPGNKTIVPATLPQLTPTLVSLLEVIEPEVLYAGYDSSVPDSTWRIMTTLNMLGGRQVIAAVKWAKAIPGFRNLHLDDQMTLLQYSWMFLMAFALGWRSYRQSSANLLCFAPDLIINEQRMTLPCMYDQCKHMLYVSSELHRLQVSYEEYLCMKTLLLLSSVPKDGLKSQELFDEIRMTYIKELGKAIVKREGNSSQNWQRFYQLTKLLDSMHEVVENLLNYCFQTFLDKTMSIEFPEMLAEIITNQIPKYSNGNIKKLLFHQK
pIC50: −log10 of the molar value.
Each record here notes measured pIC50.

CC[C@@]1(O)CC[C@@]2(Cc3ccccc3)c3ccc(-c4nc5ccccc5[nH]4)cc3CCC[C@H]2C1 = 6.00 to 7.00

[ask] For CC[C@@]1(O)CC[C@@]2(Cc3ccccc3)c3c(cnn3C)CCC[C@H]2C1.CC[C@]1(O)CC[C@]2(Cc3ccccc3)c3c(cnn3C)CCC[C@@H]2C1 , what is its reported pIC50?
[reply] 5.00 to 6.00

[ask] And the next one, CCC[C@@]1(O)CC[C@@]2(CC)c3ccc(C(=O)Nc4ccccc4Cl)cc3CCC[C@H]2C1 ?
[reply] > 7.00

[ask] And the next one, Cc1ncccc1NC(=O)c1ccc2c(c1)CCCC1=C[C@](C)(O)CC[C@]12Cc1ccccc1 (racemic) ?
[reply] > 7.00

[ask] And the next one, Oc1ccc2c(c1)CCC[C@H]1C[C@@](O)(c3ccccc3)[C@H](O)C[C@@]21Cc1ccccc1 (racemic) ?
[reply] 6.00 to 7.00

[ask] And the next one, Cc1ncccc1NC(=O)c1ccc2c(c1)CCC[C@@H]1C[C@@](O)(C(F)(F)F)CC[C@@]21Cc1ccccc1 ?
[reply] > 7.00

[ask] And the next one, Cc1ncccc1NC(=O)c1ccc2c(c1)CCC[C@H]1C[C@@](O)(COC3COC3)CC[C@@]21Cc1ccccc1 (racemic) ?
[reply] > 7.00

----------
Each record here notes measured IC50.
Assay system: Glucocorticoid Receptor (GR) (Homo sapiens)
Construct: purchased Invitrogen P2893
Procedure text: GR Florescence Polarization Assay (PolarScreen Glucocorticoid Receptor Competitor Assay, Red)
Setup conditions: Fluorescense polarization binding ranges; competition with fluorescent glucocorticoid, incubated overnight at 4° C.

Example entries begin here.
CC[C@@]1(O)CC[C@@]2(Cc3ccccc3)c3ccc(C(=O)Nc4ccc(-c5ccn[nH]5)nc4C)cc3CCC[C@H]2C1 [Example 86] = < 100 nM
Cc1ncccc1NC(=O)c1ccc2c(c1)CCC[C@@H]1C[C@@](C)(O)CC[C@@]21Cc1ccccc1.Cc1ncccc1NC(=O)c1ccc2c(c1)CCC[C@H]1C[C@](C)(O)CC[C@]21Cc1ccccc1 [Example 10] = < 100 nM
Cc1ncccc1NC(=O)c1ccc2c(c1)C(=O)CC[C@@H]1C[C@@](O)(C(F)(F)F)CC[C@@]21Cc1ccccc1 [Example 118] = < 100 nM
CC[C@@]1(O)CC[C@]2(Cc3ccccc3)c3c(cnn3C)CCC[C@@H]2C1.CC[C@]1(O)CC[C@@]2(Cc3ccccc3)c3c(cnn3C)CCC[C@H]2C1 [Example 39] = > 10000 nM

[ask] So what IC50 did CCC[C@]1(O)CC[C@]2(CC)c3ccc(C(=O)Nc4cccnc4C)cc3C=CC[C@@H]2C1 (single isomer, unassigned) [Example 130] get with Glucocorticoid Receptor (GR) (Homo sapiens)?
[reply] < 100 nM

[ask] And the next one, Cc1ncccc1NC(=O)c1ccc2c(c1)CCC[C@H]1C[C@@](O)(COc3ccccc3)CC[C@@]21Cc1ccccc1 (racemic) [Example 103] ?
[reply] < 100 nM

[ask] And the next one, Cc1ncccc1NC(=O)c1ccc2c(c1)CCC[C@H]1C[C@@](O)(CC#N)CC[C@@]21Cc1ccccc1 (racemic) [Example 65] ?
[reply] < 100 nM

[ask] And the next one, Cc1ncccc1NC(=O)c1ccc2c(c1)NC(=O)C[C@@H]1C[C@@](O)(C(F)(F)F)CC[C@@]21Cc1ccccc1 [Example 20] ?
[reply] 100 to 1000 nM

The values you see were collected from patent US20120238549A1.
